Provenance of the data: patent US9290476B2

Target: human RORγt LBD (Homo sapiens (Human), UniProt P51449)
Sequence (P51449 258-518): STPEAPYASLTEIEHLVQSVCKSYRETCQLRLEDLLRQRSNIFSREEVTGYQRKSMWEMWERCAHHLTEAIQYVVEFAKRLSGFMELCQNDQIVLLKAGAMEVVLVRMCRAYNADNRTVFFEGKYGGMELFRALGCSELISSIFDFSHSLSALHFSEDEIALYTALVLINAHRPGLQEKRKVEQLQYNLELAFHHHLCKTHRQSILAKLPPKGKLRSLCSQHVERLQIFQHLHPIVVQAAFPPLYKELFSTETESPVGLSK
Assay: RORγt reporter assay (GAL4-RORγt LBD luciferase in HEK293T cells)
Format: cell-based
Settings: HEK293T cells, 24 hours compound treatment
Each item that follows carries a reported IC50.
Entry rule: numbers only, all in µM.

COc1nc2ccc(C(O)(c3ccc(Cl)cc3)c3cncn3C)cc2c(C#N)c1Cc1ccc(-n2cccn2)cc1 (centres unmarked)
0.17

Input: Entry Cn1cncc1C(O)(c1ccc(C(F)(F)F)nc1)c1ccc2nc(Cl)c(Cc3ccc(-n4cccn4)cc3)c(Cl)c2c1 (centres unmarked) , system human RORγt LBD (Homo sapiens (Human), UniProt P51449): what IC50 was measured?
Output: 0.014

Input: Moving on to the next compound: Cn1cncc1C(O)(c1ccc(Cl)cc1)c1ccc2nc(C#N)c(Cc3ccc(-n4cccn4)cc3)c(C#N)c2c1 (single isomer, unassigned) [Example 71B]
Output: 0.011

Input: What do you get for COc1nc2ccc(C(O)(c3ccc(C(F)(F)F)nc3)c3cncn3C)cc2c(C#N)c1Cc1ccc(-n2cccn2)cc1 (single isomer, unassigned) [Example 73C] ?
Output: 0.31

Input: Next up: OC(c1cccnc1)(c1ccc2nc(Cl)c(Cc3ccc(Cl)cc3)c(Cl)c2c1)c1cncs1 (centres unmarked)
Output: 0.0065

Input: Would you mind doing OC(c1ccc(Cl)cc1)(c1cccnc1)c1ccc2nc(Cl)c(Cc3ccc(-n4cccn4)cc3)c(Cl)c2c1 (centres unmarked) as well?
Output: 0.13

Input: Param item: COc1nc2ccc(C(O)(c3ccc(C(F)(F)F)nc3)c3cncn3C)cc2c(Cl)c1Cc1ccc(S(C)(=O)=O)cc1 (centres unmarked)
Output: 0.046

Input: Same again, this time with Cn1cncc1C(O)(c1ccc(C(F)(F)F)nc1)c1ccc2nc(C#N)c(Cc3ccc(-n4cccn4)cc3)cc2c1 (single isomer, unassigned) [Example 70C]
Output: 1.6

Input: What would you report for COc1nc2ccc(C(O)(c3ccc(N(C)C)cc3)c3cccnc3)cc2c(Cl)c1Cc1ccc(-n2cccn2)cc1 (centres unmarked) ?
Output: 0.18

Input: Also check COc1nc2ccc(C(O)(c3ccc(C(F)(F)F)nc3)c3cncn3C)cc2c(Cl)c1Cc1cc2ccccc2s1 (single isomer, unassigned) [Example 37B]
Output: 0.16

Input: Would you kindly repeat that for CCc1nc2ccc(C(O)(c3cnnn3C)C3CN(C(=O)OC(C)(C)C)C3)cc2c(Cl)c1Cc1ccc(C(F)(F)F)cc1 (centres unmarked) ?
Output: 0.021

Input: Also, COc1nc2ccc(C(O)(c3sc(C)nc3C)c3cnnn3C)cc2c(Cl)c1Cc1ccc(C(F)(F)F)cc1 (centres unmarked) [Example 79C] please.
Output: 0.0025

Input: Further, for OC(c1cccnc1)(c1cccc(Cl)c1)c1ccc2nc(Cl)c(Cc3ccc(-n4cccn4)cc3)c(Cl)c2c1 (centres unmarked) ?
Output: 0.057

Input: Repeat with Cn1cncc1C(O)(c1ccc(Cl)cc1)c1ccc2nc(O)c(Cc3ccc(-n4cccn4)cc3)c(Cl)c2c1 (centres unmarked) [Example 55A]
Output: 1.7

Input: Same for COc1nc2ccc(C(O)(c3ccc(C(F)(F)F)nc3)c3cncn3C)cc2c(C#N)c1Cc1ccc(-n2cccn2)cc1 (single isomer, unassigned) [Example 73B]
Output: 0.046

Input: One more compound: COc1nc2ccc(C(O)(c3ccc(C#N)cc3)c3cncn3C)cc2c(C#N)c1Cc1ccc(C(F)(F)F)cc1 (centres unmarked) [Example 96A]
Output: 0.0078

Input: Can you handle Cc1cc(C(O)(c2ccc(C(F)(F)F)nc2)c2cncn2C)cc2c(C#N)c(Cc3ccc(-n4cccn4)cc3)c(C#N)nc12 (single isomer, unassigned) [Example 65B] next?
Output: 0.13

Input: Now this one: COc1nc2c(F)cc(C(O)(c3ccc(C(F)(F)F)nc3)c3cncn3C)cc2c(Cl)c1Cc1ccc(-n2cccn2)cc1 (single isomer, unassigned) [Example 58C]
Output: 0.66

Input: Now consider COc1nc2c(C)cc(C(O)(c3ccc(C(F)(F)F)nc3)c3cncn3C)cc2c(Cl)c1Cc1ccc(-n2cccn2)cc1 (single isomer, unassigned) [Example 29B] .
Output: 0.13

Input: Follow-up item: COc1nc2ccc(C(O)(c3ccc(C(F)(F)F)nc3)c3cncn3C)cc2c(Cl)c1Cc1ccc(C(F)(F)F)nc1 (single isomer, unassigned) [Example 94B]
Output: 0.21

Input: Also, Cn1cncc1C(O)(c1ccc(Cl)cc1)c1ccc2nc(C#N)c(Cc3ccc(-n4cccn4)cc3)c(C#N)c2c1 (single isomer, unassigned) [Example 71C] please.
Output: 0.26

Input: And then OC(c1cccnc1)(c1cccc(F)c1)c1ccc2nc(Cl)c(Cc3ccc(-n4cccn4)cc3)c(Cl)c2c1 (centres unmarked) , what is it?
Output: 0.058

Input: Could you do the same for CCN(CC)c1nc2ccc(C(O)(c3ccc(C(F)(F)F)nc3)c3cncn3C)cc2c(C#N)c1Cc1ccc(-n2cccn2)cc1 (single isomer, unassigned) [Example 74C] , please?
Output: 0.93

====

Target: human RORγt LBD (Homo sapiens (Human), UniProt P51449)
Assay: RORγt reporter assay (GAL4-RORγt LBD luciferase in HEK293T cells)
Type: cell-based
Conditions: HEK293T cells, 24 hours compound treatment
Examples of molecules with documented IC50 follow.

In the examples that follow, each entry is paired with its recorded IC50.
COc1nc2c(C)cc(C(O)(c3ccc(Cl)cc3)c3cncn3C)cc2c(Cl)c1Cc1ccc(-n2cccn2)cc1 (single isomer, unassigned) [Example 28B]
1.1 µM
COc1nc2ccc(C(O)(c3ccc(C(F)(F)F)nc3)c3cncn3C)cc2c(Cl)c1Cc1cc2ccccc2s1 (single isomer, unassigned) [Example 37C]
0.11 µM
COc1nc2c(OC)cc(C(O)(c3ccc(C(F)(F)F)nc3)c3cncn3C)cc2c(Cl)c1Cc1ccc(-n2cccn2)cc1 (single isomer, unassigned) [Example 59C]
0.57 µM

Input: Tell me reported IC50 for COc1nc2ccc(C(O)(c3ccc(Cl)cc3)c3cncn3C)cc2c(Cl)c1Cc1cc2ccccc2s1 (single isomer, unassigned) [Example 36C] , tested with human RORγt LBD (Homo sapiens (Human), UniProt P51449).
Output: 0.1 µM

Input: Input COc1nc2c(C)cc(C(O)(c3ccc(Cl)cc3)c3cncn3C)cc2c(Cl)c1Cc1ccc(-n2cccn2)cc1 (single isomer, unassigned) [Example 28C]
Output: 0.087 µM

Input: Can you check CS(=O)(=O)c1ccc(Cc2c(Cl)nc3ccc(C(O)(c4cccnc4)c4cccc(Cl)c4)cc3c2Cl)cc1 (stereo not drawn) [Example 8] next?
Output: 0.068 µM

Input: Now give it for COc1nc2ccc(C(O)(c3cnc(C)n3C)c3cnc(C)n3C)cc2c(Cl)c1Cc1ccc(C(F)(F)F)cc1 [Example 93] too.
Output: 0.16 µM

Input: Entry to check: COc1nc2ccc(C(O)(c3ccc(Cl)cc3)c3cncn3C)cc2c(OC)c1Cc1ccc(-n2cccn2)cc1 (stereo not drawn) [Example 34]
Output: 0.46 µM

Input: Another molecule: COc1nc2ccc(C(O)(c3cnnn3C)C3CN(C(C)=O)C3)cc2c(Cl)c1Cc1ccc(C(F)(F)F)cc1 (single isomer, unassigned) [Example 97B]
Output: 0.0059 µM

Input: Do the same for COc1nc2ccc(C(O)(c3ccc(C#N)cc3)c3cncn3C)cc2c(C#N)c1Cc1ccc(-n2cccn2)cc1 (single isomer, unassigned) [Example 76B] please
Output: 0.12 µM

Input: Moving on to the next molecule: Cn1cncc1C(O)(c1ccc(C(F)(F)F)nc1)c1ccc2nc(N3CCC3)c(Cc3ccc(-n4cccn4)cc3)c(Cl)c2c1 (single isomer, unassigned) [Example 68B]
Output: ~0.05 µM

Input: What do we get for Cn1cc(C(O)(c2ccc(Cl)cc2)c2ccc3nc(Cl)c(Cc4ccccc4)c(Cl)c3c2)cn1 (stereo not drawn) [Example 49] ?
Output: 1.8 µM

Input: Repeat with Cc1ccc(C(O)(c2ccc3nc(C#N)c(Cc4ccc(C(F)(F)F)cc4)c(C#N)c3c2)c2cnnn2C)c(C)n1 (single isomer, unassigned) [Example 88B]
Output: 0.14 µM

Input: Input COc1nc2ccc(C(O)(c3ccc(Cl)cc3)c3cncn3C)cc2c(Cl)c1Cc1cc2ccccc2s1 (single isomer, unassigned) [Example 36B]
Output: 0.74 µM

Input: Entry CON(C)c1nc2ccc(C(O)(c3ccc(C(F)(F)F)nc3)c3cncn3C)cc2c(Cl)c1Cc1ccc(-n2cccn2)cc1 (stereo not drawn) [Example 67A] please
Output: 0.044 µM

Input: Same thing, different molecule: Cn1cncc1C(O)(c1ccc(C(F)(F)F)nc1)c1ccc2nc(N3CCC3)c(Cc3ccc(C(F)(F)F)cc3)c(Cl)c2c1 (single isomer, unassigned) [Example 92C]
Output: 0.017 µM

Input: Here is the next molecule: COc1nc2ccc(C(O)(c3cnnn3C)C3CN(C(C)=O)C3)cc2c(Cl)c1Cc1ccc(C(F)(F)F)cc1 (racemic) [Example 97A]
Output: 0.0042 µM
